Values compiled from ChEMBL document CHEMBL4627262.

- Assay System: UniProtKB P35968
- Sequence (P35968 whole entry): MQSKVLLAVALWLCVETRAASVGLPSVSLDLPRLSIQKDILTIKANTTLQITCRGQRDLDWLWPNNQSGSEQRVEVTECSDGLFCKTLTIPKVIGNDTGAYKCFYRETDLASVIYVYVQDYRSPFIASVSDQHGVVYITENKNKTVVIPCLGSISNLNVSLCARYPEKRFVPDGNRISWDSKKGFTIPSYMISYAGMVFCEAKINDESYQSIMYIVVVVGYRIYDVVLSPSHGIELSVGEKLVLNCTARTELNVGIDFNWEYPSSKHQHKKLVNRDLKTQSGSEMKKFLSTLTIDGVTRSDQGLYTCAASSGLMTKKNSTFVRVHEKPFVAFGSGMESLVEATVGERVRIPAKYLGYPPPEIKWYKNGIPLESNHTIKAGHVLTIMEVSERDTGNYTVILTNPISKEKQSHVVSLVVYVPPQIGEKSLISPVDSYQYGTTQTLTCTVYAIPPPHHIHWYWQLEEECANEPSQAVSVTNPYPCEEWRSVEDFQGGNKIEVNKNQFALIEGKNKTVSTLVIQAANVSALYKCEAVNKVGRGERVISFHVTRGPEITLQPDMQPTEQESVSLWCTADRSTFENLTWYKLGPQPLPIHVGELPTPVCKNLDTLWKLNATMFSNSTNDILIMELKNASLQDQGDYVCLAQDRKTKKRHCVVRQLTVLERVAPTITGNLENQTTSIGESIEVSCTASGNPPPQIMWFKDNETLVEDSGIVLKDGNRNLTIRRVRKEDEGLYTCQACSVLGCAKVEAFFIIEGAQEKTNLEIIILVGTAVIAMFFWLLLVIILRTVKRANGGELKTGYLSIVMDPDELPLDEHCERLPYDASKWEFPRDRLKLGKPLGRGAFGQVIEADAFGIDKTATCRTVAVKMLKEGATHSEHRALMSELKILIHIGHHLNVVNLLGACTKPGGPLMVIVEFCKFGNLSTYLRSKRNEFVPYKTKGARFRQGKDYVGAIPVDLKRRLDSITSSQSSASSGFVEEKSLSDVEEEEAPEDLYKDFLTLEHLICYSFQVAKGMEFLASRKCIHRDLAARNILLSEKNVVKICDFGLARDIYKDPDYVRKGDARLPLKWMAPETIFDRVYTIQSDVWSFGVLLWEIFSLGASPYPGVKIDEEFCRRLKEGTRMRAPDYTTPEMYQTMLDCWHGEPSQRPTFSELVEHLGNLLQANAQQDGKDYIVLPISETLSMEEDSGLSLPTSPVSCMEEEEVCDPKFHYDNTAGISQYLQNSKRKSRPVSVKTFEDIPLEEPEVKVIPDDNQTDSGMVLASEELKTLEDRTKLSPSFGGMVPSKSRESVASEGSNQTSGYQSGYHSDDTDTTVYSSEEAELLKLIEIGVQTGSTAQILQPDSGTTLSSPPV
- Assay Comment: Inhibition of VEGFR2 in human MCF7 cells by horseradish peroxidase-coupled TMB substrate based ELISA
pIC50: −log10 of the molar value.
Experimental Endpoint: pIC50

a. Cc1cc(=O)oc2cc(OCC(=O)Nn3c(=O)[nH]c4ccccc4c3=O)ccc12
b. Cc1cc(=O)oc2cc(OCC(=O)NNCc3ccccc3)ccc12
Which has the higher pIC50, a or b ? Answer = label.
b
